target: hrPDE3A (Homo sapiens)
Sequence (Q14432 whole entry): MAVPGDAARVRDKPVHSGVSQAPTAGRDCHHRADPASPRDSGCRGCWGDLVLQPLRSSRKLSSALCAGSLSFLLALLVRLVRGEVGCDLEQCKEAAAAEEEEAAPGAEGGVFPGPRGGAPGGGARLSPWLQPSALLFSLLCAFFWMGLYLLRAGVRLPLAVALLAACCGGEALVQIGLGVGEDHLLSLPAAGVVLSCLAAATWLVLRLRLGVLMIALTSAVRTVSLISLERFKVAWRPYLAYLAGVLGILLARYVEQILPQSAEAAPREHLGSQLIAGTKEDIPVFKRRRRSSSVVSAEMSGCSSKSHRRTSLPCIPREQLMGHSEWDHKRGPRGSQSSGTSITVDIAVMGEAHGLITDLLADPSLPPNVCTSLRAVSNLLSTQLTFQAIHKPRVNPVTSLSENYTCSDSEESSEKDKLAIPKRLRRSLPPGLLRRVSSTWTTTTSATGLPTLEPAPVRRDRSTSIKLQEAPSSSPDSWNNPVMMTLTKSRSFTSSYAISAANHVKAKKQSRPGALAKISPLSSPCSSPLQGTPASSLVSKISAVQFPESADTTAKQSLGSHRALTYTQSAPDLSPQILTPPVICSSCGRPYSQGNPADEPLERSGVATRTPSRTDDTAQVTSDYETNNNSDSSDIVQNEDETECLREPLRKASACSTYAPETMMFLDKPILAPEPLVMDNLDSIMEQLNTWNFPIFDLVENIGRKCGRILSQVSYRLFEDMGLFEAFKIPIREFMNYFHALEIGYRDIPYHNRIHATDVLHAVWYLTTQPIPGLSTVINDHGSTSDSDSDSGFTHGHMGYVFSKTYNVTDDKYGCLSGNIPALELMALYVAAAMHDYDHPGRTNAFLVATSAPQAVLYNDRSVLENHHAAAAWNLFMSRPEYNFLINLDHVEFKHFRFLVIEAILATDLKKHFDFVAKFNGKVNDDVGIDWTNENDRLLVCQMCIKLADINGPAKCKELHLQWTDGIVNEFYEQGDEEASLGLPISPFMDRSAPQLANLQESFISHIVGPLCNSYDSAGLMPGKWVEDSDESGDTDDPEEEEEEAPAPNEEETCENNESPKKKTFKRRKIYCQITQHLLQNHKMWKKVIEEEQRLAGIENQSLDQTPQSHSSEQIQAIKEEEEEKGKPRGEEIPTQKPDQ
property.measured: pIC50
Friendly reminder that pIC50 comes from taking -log10 of the concentration in mol/L.

Inquiry: State, in one line, measured pIC50 of CC(O)CCCCn1c(=O)c2c(ncn2C)n(C)c1=O (racemic) [(±)-LSF, lisofylline]
Reply text: 4.13

---

assay: Pharmacokinetics in female Lewis rats; type: in vivo, rat; conditions: rat, plasma, other: IV and SC; female Lewis rats, (±)-LSF IV 40 and SC 80 mg kg^−1; read-out: VLSF, volume of distribution of (±)-LSF, Estimate (CV%)
property.measured: Vd (L/kg)
I only need the number, in L/kg, no unit after it.

Inquiry: State, in one line, measured Vd of CC(O)CCCCn1c(=O)c2c(ncn2C)n(C)c1=O (racemic) [(±)-LSF, lisofylline]
Reply text: 0.37

---

experiment: Pharmacokinetics in female Lewis rats; type: in vivo, rat; settings: rat, plasma, other: GRMS-55 IV and IP; rolipram IP; female Lewis rats; read-out: half-life calculated as ln2·V1/Clt (elimination half-life)
Listed here are compounds together with their documented half-life.
I only need the number, in min, no unit after it.

[
  {
    "compound": "Cn1c(=O)c2c(nc(NCCc3ccccc3)n2CCCC(=O)NN=Cc2ccccc2O)n(C)c1=O",
    "half-life (min)": 21
  }
]

Attention now turns to another entry.
Inquiry: State, in one line, measured half-life of COc1ccc(C2CNC(=O)C2)cc1OC1CCCC1 (centres unmarked)
Reply text: 30

---

target: hrPDE10A (Homo sapiens)
Sequence (Q9Y233 whole entry): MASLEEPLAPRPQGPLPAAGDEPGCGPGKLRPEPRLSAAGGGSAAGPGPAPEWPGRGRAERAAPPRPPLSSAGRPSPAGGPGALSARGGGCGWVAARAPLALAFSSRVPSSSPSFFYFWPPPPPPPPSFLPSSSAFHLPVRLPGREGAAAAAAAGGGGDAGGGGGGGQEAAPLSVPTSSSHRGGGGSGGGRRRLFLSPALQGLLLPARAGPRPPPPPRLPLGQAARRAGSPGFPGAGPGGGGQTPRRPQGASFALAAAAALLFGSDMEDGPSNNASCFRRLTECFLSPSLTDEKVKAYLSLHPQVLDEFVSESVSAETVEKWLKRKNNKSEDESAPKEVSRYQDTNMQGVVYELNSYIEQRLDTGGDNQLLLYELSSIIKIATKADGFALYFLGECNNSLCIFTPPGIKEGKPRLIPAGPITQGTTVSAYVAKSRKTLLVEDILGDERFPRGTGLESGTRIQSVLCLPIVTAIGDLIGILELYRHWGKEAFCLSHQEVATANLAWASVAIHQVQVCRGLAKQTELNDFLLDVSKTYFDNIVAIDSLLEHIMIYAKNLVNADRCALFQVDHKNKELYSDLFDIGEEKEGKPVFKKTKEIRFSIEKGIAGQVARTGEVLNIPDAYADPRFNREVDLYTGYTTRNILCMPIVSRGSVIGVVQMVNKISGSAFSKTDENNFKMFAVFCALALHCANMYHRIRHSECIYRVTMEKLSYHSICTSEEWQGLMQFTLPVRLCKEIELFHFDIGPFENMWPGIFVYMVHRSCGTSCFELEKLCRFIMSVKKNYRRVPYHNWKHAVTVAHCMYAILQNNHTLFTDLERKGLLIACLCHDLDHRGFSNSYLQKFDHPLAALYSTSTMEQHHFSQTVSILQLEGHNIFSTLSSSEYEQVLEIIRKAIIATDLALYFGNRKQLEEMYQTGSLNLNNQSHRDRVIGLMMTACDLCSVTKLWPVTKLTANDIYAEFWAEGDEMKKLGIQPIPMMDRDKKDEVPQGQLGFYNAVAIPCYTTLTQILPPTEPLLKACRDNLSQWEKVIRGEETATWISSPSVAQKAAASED
property.measured: IC50

Inquiry: Report value only: IC50, hrPDE10A (Homo sapiens), CC(O)CCCCn1c(=O)c2c(ncn2C)n(C)c1=O (racemic) [(±)-LSF, lisofylline]
Reply text: > 100 µM

---

target: hrPDE4B (Homo sapiens, UniProt Q07343)
Sequence (Q07343 whole entry): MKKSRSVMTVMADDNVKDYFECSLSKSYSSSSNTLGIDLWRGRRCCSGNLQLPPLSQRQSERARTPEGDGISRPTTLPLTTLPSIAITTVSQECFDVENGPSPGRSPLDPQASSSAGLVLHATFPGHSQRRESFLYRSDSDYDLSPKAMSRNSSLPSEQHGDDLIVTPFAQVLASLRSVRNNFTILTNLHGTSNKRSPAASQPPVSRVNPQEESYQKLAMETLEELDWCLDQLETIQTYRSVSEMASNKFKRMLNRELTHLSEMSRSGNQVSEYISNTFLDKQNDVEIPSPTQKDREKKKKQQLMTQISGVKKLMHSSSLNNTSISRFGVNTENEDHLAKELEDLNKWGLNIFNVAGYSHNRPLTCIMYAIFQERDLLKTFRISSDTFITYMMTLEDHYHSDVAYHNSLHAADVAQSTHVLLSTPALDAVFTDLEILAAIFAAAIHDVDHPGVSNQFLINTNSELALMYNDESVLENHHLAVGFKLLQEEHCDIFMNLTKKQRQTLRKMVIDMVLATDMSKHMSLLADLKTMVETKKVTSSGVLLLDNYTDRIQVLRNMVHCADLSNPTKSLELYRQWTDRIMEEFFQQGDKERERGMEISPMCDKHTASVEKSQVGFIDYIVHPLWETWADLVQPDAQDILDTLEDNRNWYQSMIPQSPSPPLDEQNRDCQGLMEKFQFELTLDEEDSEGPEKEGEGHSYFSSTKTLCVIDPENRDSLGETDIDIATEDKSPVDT
property.measured: pIC50
Friendly reminder that pIC50 comes from taking -log10 of the concentration in mol/L.

Inquiry: State, in one line, measured pIC50 of CC(O)CCCCn1c(=O)c2c(ncn2C)n(C)c1=O (racemic) [(±)-LSF, lisofylline]
Reply text: 4.29

---

IC50 data for hrPDE1B (Homo sapiens, UniProt Q01064) follow.
I only need the number, in µM, no unit after it.

[
  {
    "compound": "Cn1c(=O)c2c(nc(NCCc3ccccc3)n2CCCC(=O)NN=Cc2ccccc2O)n(C)c1=O",
    "IC50 (µM)": 2.5
  }
]

Attention now turns to another entry.
Inquiry: Report value only: IC50, hrPDE1B (Homo sapiens, UniProt Q01064), CC(O)CCCCn1c(=O)c2c(ncn2C)n(C)c1=O (racemic) [(±)-LSF, lisofylline]
Reply text: 12.9

---

biological target: UniProt:Q08499
Sequence (Q08499 whole entry): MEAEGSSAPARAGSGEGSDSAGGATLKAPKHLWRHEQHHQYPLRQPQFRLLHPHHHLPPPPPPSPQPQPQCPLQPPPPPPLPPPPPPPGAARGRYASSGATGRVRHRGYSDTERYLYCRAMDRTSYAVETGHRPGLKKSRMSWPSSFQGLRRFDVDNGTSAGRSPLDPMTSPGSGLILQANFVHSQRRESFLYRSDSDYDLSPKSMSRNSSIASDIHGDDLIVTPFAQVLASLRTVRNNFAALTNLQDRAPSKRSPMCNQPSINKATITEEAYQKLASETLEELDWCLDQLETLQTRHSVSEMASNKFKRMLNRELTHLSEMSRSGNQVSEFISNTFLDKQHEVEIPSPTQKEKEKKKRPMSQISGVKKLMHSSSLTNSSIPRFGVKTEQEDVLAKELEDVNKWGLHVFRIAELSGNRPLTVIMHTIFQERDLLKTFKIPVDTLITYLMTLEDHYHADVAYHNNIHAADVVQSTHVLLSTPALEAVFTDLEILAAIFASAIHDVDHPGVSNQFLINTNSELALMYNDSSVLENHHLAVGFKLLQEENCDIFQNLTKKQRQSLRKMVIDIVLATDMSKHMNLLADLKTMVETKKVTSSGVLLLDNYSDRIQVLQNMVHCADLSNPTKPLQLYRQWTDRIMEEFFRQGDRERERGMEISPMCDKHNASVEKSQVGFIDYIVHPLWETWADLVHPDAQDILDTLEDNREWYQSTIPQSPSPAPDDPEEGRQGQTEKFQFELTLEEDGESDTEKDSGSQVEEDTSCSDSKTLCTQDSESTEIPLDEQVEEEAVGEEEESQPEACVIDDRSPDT
pIC50: −log10 of the molar value.
property.measured: pIC50

Inquiry: State, in one line, measured pIC50 of CC(O)CCCCn1c(=O)c2c(ncn2C)n(C)c1=O (racemic) [(±)-LSF, lisofylline]
Reply text: < 3.70
